molecular target: Tyrosinase (Agaricus bisporus); test: Inhibition of Tyrosinase
pIC50: −log10 of the molar value.
Kind request: treat 6 as inclusive, so pIC50 at 6 or higher is YES, anything lower is NO.

smiles_entry=Oc1ccc(CCc2ccc(O)cc2O[C@@H]2OC[C@@H](O)[C@H](O)[C@H]2O)c(O)c1 discrete_label=NO
smiles_entry=Oc1ccc(CCc2ccc(O[C@@H]3OC[C@@H](O)[C@H](O)[C@H]3O)cc2O)c(O)c1 discrete_label=YES

---

molecular target: Tyrosinase (Agaricus bisporus); test: Inhibition of Tyrosinase
property label: IC50 (nM)

smiles_entry=OC[C@H]1O[C@H](O[C@H]2[C@H](O)[C@@H](O)[C@H](Oc3ccc(CCc4ccc(O)cc4O)c(O)c3)O[C@@H]2CO)[C@H](O)[C@@H](O)[C@@H]1O value_unit=nM observed_measurement=830
smiles_entry=OC[C@H]1O[C@@H](O[C@H]2[C@H](O)[C@@H](O)[C@H](Oc3ccc(CCc4ccc(O)cc4O)c(O)c3)O[C@@H]2CO)[C@H](O)[C@@H](O)[C@@H]1O value_unit=nM observed_measurement=680
smiles_entry=OC[C@H]1O[C@@H](Oc2ccc(CCc3ccc(O)cc3O)c(O)c2)[C@H](O)[C@@H](O)[C@@H]1O value_unit=nM observed_measurement=770
